Known composite z-score of a selection of compounds
# EXPERIMENT DESCRIPTION: small-molecule microarray binders of probe aDKK1, primary screen, biochemical, biotinylated probe, 635/667 nm fluorescence (AID 1099);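 further: score merges 667nm spot fluorescence with signal to noise across triplicate slides; reference of the scale not given here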
# TEST CONDITIONS: higher = more signal
The reply should be a number, written without any unit.

Solved cases below.
1. COC(=O)[C@@]1(Cc2ccccc2)[C@H]2c3cc(C(=O)N4CCCC4)n(CC4CC4)c3C[C@H]2CN1C(=O)c1ccccc1; 1.48
2. CC(C)C(=C=CC[C@@H](O)c1ccccc1OCCO)CCO; -0.258
3. COCCOC(=O)N1C(=O)[C@@]2(c3cc(C#CCCO)ccc31)[C@H](C(=O)N1CCc3cc(OC)c(OC)cc3C1)[C@H]1C(=O)O[C@H](c3ccccc3)[C@H](c3ccccc3)N1[C@@H]2c1ccc(O)cc1; 0.0869
4. O=C1O[C@@H](c2ccccc2)[C@@H](c2ccccc2)N2[C@@H](c3ccc(OCCO)cc3)[C@]3(C(=O)Nc4ccccc43)[C@@H](C(=O)NC[C@H](O)c3ccccc3)[C@H]12; 0.189
5. O=C(NCC(F)(F)F)[C@@H]1c2ccccc2C(=O)N(C2CCCCC2)[C@H]1c1ccc(CO)cc1; 0.121

# composite z-score of O=C1O[C@H](c2ccccc2)[C@H](c2ccccc2)N2[C@H]1[C@@H](C(=O)O)[C@]1(C(=O)Nc3ccc(C#CC4=CCCCC4)cc31)[C@H]2c1ccccc1OCCO = -0.738

# composite z-score of COC(=O)[C@@]1(Cc2ccc(F)cc2)[C@@H]2[C@@H](CC(=O)[C@H]2CC(=O)C(=O)N(C)C)CN1C(=O)c1ccccc1 = 1.21

# composite z-score of C[C@@H]1ON(c2cccc(C(=O)OC(C)(C)C)c2)[C@H](c2ccc(Br)cc2)[C@H]1C(=O)N1C(=O)OC[C@H]1Cc1ccccc1 = -0.155

# composite z-score of C=CC[C@@]1(C(=O)NCc2ccccc2)N=C(c2ccc(OCCCO)cc2)O[C@@H]1c1ccccc1N=[N+]=[N-] = 0.925

# composite z-score of COc1ccc(CCNC(=O)[C@@]2(C)c3ccccc3C(=O)N(Cc3cc(F)cc(C(F)(F)F)c3)[C@H]2c2ccc(CO)cc2)cc1 = 0.362

# composite z-score of O=C1C2C=CC(C(O)c3c(F)cccc3Cl)N(Nc3ccccc3)C2C(=O)N1c1ccccc1 (stereo not drawn) = 0.532

# composite z-score of C=CCOC(=O)[C@@H]1[C@H]2C(=O)O[C@H](c3ccccc3)[C@H](c3ccccc3)N2[C@H](c2ccc(OCCOC(=O)[C@@H]3C[C@@H]4C(=O)N[C@@H](CCCC[N+](C)(C)C)C(=O)N4[C@@H]3c3cccc(OCCO)c3)cc2)[C@@]12C(=O)Nc1ccc(I)cc12 = 0.0616

# composite z-score of COCCOC(=O)N1C(=O)[C@@]2(c3cc(C#CC4=CCCCC4)ccc31)[C@H](c1ccc(O)cc1)N1[C@H](c3ccccc3)[C@H](c3ccccc3)OC(=O)[C@H]1[C@@H]2C(N)=O = -0.327
